- test name: Quantitative High-Throughput drug screen in 47 multiple myeloma cell lines against the NCATS MIPE library collection: VP6_DJ cell viability assay (AID 1919867); also: nearly all actives have a fitted effect of over 40% in size
- cond: ATP luminescence, 48 h; series mostly up to 45.8 µM
Records with an inconclusive call do not appear. Active and inactive are the calls of the source. Calls follow the shape of the dose curve; as a rule, active = well fitted cell-killing curve with a large enough effect; inconclusive = small, poorly fitted or top-dose-only effect, or effect the other way; inactive = no such curve, though single readings can be large or run the other way.
// allowed return values: Y (active), N (inactive)

**Q:** Look up the recorded call for CCc1ccc(OCc2ccccc2C(=O)Nc2ccc3nc(C)cc(N)c3c2)cc1 in this test.
**A:** Y

**Q:** Entry CC(=O)N(C)C1(c2ccccc2)CCN(CCC[C@]2(c3ccc(Cl)c(Cl)c3)CCCN(C(=O)c3ccccc3)C2)CC1 : call = ?
**A:** Y

**Q:** Entry CC(=O)OC1C(C)OC(Oc2c(-c3ccc(O)cc3)oc3cc(O)cc(O)c3c2=O)C(O)C1OC(C)=O (configuration not stated) : call = ?
**A:** N

**Q:** For COc1ccc(C2Sc3ccccc3N(CCN(C)C)C(=O)C2OC(C)=O)cc1 (configuration not stated) , which call appears in the assay record?
**A:** N

**Q:** Hi, sorry to bother you, what did the test record for Cc1ccn(-c2ccc(-c3ncco3)cc2)c(=O)c1-c1ccc2nc(N)ncc2c1 ?
**A:** Y

**Q:** Lab log entry: Nc1ncnc2c1nc(Cl)n2[C@@H]1O[C@H](CO)[C@@H](O)[C@@H]1O — outcome as called in the assay?
**A:** Y

**Q:** Outcome logged for C=C1C(=O)[C@@]23C(CC[C@@H]1[C@H]2O)[C@@]12CO[C@]3(O)[C@@H](O)[C@@H]1C(C)(C)CC[C@@H]2O (some centres not stated) in this assay:
**A:** Y

**Q:** How was CC(C)C(=O)Nc1ncc(-c2cc(C(F)F)nn2-c2c(Cl)cccc2Cl)s1 classified in this test?
**A:** Y

**Q:** Would you mind telling me which call this test gave CC[C@H]1OC(=O)[C@H](C)[C@@H](O[C@H]2C[C@@](C)(OC)[C@@H](O)[C@H](C)O2)[C@H](C)[C@@H](O[C@@H]2O[C@H](C)C[C@H](N(C)C)[C@@H]2O)[C@](C)(O)C[C@@H](C)CN(C)[C@H](C)[C@@H](O)[C@]1(C)O ?
**A:** N

**Q:** Entry Cc1nc(N)sc1-c1ccnc(Nc2ccc(N3CCOCC3)cc2)n1 : call = ?
**A:** Y

**Q:** Record lookup: outcome of this test for CC1(C)S[C@H]2[C@H](NC(=O)[C@@H](N)c3ccc(O)cc3)C(=O)N2[C@@H]1C(=O)O ?
**A:** Y

**Q:** Tell me the recorded outcome of this test for COc1ccc(-c2nc(N3CCOCC3)c3sc(CN(C)c4ncc(C(=O)NO)cn4)cc3n2)cn1 .
**A:** N

**Q:** # lookup: test call for NS(=O)(=O)c1ccc(NC2=CC(=O)c3ccccc3C2=O)cc1
**A:** Y

**Q:** Which outcome was assigned to Cc1ccc(F)c(NC(=O)Nc2ccc(-c3cccc4[nH]nc(N)c34)cc2)c1 in this test?
**A:** Y

**Q:** Look up the recorded call for CN(C)Cc1ccc(-c2nc3cccc4c3n2CCNC4=O)cc1 in this test.
**A:** Y

**Q:** What call does the record list for CCOC(CN1C(=O)[C@](CC(=O)Nc2ccc(C)cc2)(NC(=O)Nc2ccc(C)cc2)c2ccccc21)OCC ?
**A:** Y

**Q:** Test call, this compound: Cc1cccc(Nc2nc(-c3ccncc3)cs2)c1
**A:** Y

**Q:** Each compound tested received a call. Report the one for CO[C@H]1C=CC=C(C)C(=O)NC2=CC(=O)C(NCCN(C)C)=C(C[C@@H](C)C[C@H](OC)[C@@H](O)[C@@H](C)C=C(C)[C@@H]1OC(N)=O)C2=O .
**A:** Y

**Q:** // outcome(item) with item = N#Cc1ccc(NC(=O)Nc2ccccc2Br)c2n[nH]nc12
**A:** Y

**Q:** Field: outcome | Entry: COc1cc(Nc2ncc(F)c(Nc3ccc4c(n3)NC(=O)C(C)(C)O4)n2)cc(OC)c1OC
**A:** Y

**Q:** Outcome logged for CNC(=O)c1ccc2cc(C3(O)CCn4cncc43)ccc2c1 (configuration not stated) in this assay:
**A:** N

**Q:** Short answer needed: outcome of this test for O=C(O)c1cc(O)c2c(c1)C(=O)c1cccc(O)c1C2=O ?
**A:** N

**Q:** Just curious, what result did CCn1c(C(=O)N(C2CC2)C2CC2)cc2c3c(ncn3C)c(Nc3cc(C)n(C)n3)nc21 get here?
**A:** Y

**Q:** # lookup: test call for COc1ccc2cccc(CCNC(C)=O)c2c1
**A:** Y

**Q:** Please indicate how the test categorized NC(=O)c1cnc(-c2ccc(C3(N)CCC3)cc2)c(-c2ccccc2)c1 .
**A:** Y

**Q:** I'd appreciate the recorded outcome for O=C(NCc1ccccc1)c1csc(Nc2ccncn2)n1 from this test.
**A:** Y

**Q:** Could you check what this test reported for CC(C)n1nc(-c2ccc3oc(N)nc3c2)c2c(N)ncnc21 ?
**A:** Y

**Q:** Hi, sorry to bother you, what did the test record for CC[C@H]1OC(=O)[C@H](C)C(=O)[C@H](C)[C@@H](O[C@H]2O[C@H](C)C[C@H](N(C)C)[C@@H]2O)[C@](C)(OC)C[C@@H](C)C(=O)[C@H](C)[C@H]2N(CCCCn3cnc(-c4cccnc4)c3)C(=O)O[C@]12C ?
**A:** Y

**Q:** Could you please tell me the result logged for CC=CCC=CCCC(=O)[C@H]1O[C@@H]1C(N)=O in this assay?
**A:** Y

**Q:** What call does the record list for COc1cc(NC(=O)c2ccc(-c3ccc(Cl)cc3)o2)cc(OC)c1 ?
**A:** Y

**Q:** Entry C[C@H](NC(=O)C(=O)Nc1ccccc1C(C)(C)C)C(=O)N[C@@H](CC(=O)O)C(=O)COc1c(F)c(F)cc(F)c1F : call = ?
**A:** N

**Q:** Short answer needed: outcome of this test for Nc1nc(F)nc2c1ncn2[C@@H]1O[C@H](COP(=O)(O)O)[C@@H](O)[C@H]1O ?
**A:** N

**Q:** Entry NC(=O)c1cccc(-c2cc(Nc3ccc(OC(F)(F)F)cc3)ncn2)c1 : call = ?
**A:** Y

**Q:** Please share the test call associated with O=C(CCCCCCC(=O)Nc1ccccc1)NO .
**A:** Y

**Q:** What did the test return for NC(=O)c1cccc2[nH]c(-c3ccc([C@H]4CCCN4)cc3F)nc12 ?
**A:** Y

**Q:** What outcome does the record of this test show for CO[C@H]1C=CO[C@@]2(C)Oc3c(C)c(O)c4c(O)c(c5c(c4c3C2=O)NC2(CCN(CC(C)C)CC2)N=5)=NC(=O)C(C)=CC=C[C@H](C)[C@H](O)[C@@H](C)[C@@H](O)[C@@H](C)[C@H](OC(C)=O)[C@H]1C ?
**A:** Y

**Q:** Record request — test call for O=C(Nc1cc(Cl)cc2c1[nH]c1cnccc12)c1cccnc1
**A:** Y
